experiment: Toxicity liver stage against HepG2, at 10uM; type: cell-based; design: test concentration 10 uM, cell line HepG2-A16-CD81EGFP; details: human, HepG2-A16-CD81EGFP cells; read-out: INHIBITION
measured quantity: cytotoxicity at 10 µM (%)
Number in %, nothing else.

See these solved cases before continuing.
1) COCCNC(=O)[C@@H]1C[C@H]2[C@H](CCN2c2cc(OC)ncn2)O1 : 8.56
2) CC(=O)c1ccccc1-c1nc(CC2CCN(C)CC2)no1 : -17.5
3) CCc1ncc(C(=O)NCCNC(=O)Cc2ccc(F)cc2)s1 : -2.57
4) Cc1nc(N2CCCC2)ccc1NCc1ccccn1 : 5.13
5) CCSC(C)C(=O)N1CCC(c2nn(C)c(=O)n2-c2ccccc2)CC1 (stereo unspecified) : 0.299

Please find the next molecule below.
Prompt: Quick check: cytotoxicity at 10 µM of "NC(=O)NCCC(=O)N1CCC(c2cc(-c3ccccc3Cl)n[nH]2)CC1" ?
Response: -6.67

###

Reported cytotoxicity at 10 µM values are given for each entry in this list.
test: Toxicity liver stage against HepG2, at 10uM; format: cell-based; set-up: test concentration 10 uM, cell line HepG2-A16-CD81EGFP; conditions: human, HepG2-A16-CD81EGFP cells; read-out: INHIBITION
Number in %, nothing else.

See these solved cases before continuing.
1) Cc1ccccc1-c1cncc(C2CCN(CCO)CC2)n1 : -1.61
2) Cc1noc(C2CCCCN2C(=O)NC2CCCC2)n1 (centres undefined) : 2.4
3) CN(C)c1nc(N)nc(CSCCC(=O)Nc2cccc(Cl)c2)n1 : 0.779
4) O=C1CC(C(=O)NCc2ccccc2Oc2ccccc2F)CCN1 (centres undefined) : -2.81

Prompt: Quick check: cytotoxicity at 10 µM of O=C(NCCc1ccc(F)cc1)NCC(O)c1cccc(F)c1 (centres undefined) ?
Response: -1.14

Prompt: Quick check: cytotoxicity at 10 µM of CC(C)C1SCC(=O)Nc2c1cnn2C(C)C (centres undefined) ?
Response: 4

Prompt: Quick check: cytotoxicity at 10 µM of "CNC(=O)CNC(=O)Nc1ccc(Br)c(F)c1" ?
Response: 5.44

Prompt: Quick check: cytotoxicity at 10 µM of "CN(CCc1cnn(C)c1)C(=O)CN1C(=O)OC[C@@H]1c1ccccc1" ?
Response: -41.7

Prompt: Quick check: cytotoxicity at 10 µM of Cc1nn(C)c(Oc2cccnc2)c1NC(=O)C1CCCO1 (centres undefined) ?
Response: -8.78

###

Reported cytotoxicity at 10 µM values are given for each entry in this list.
experiment: Toxicity liver stage against HepG2, at 10uM; format: cell-based; set-up: test concentration 10 uM, cell line HepG2-A16-CD81EGFP; details: human, HepG2-A16-CD81EGFP cells; read-out: INHIBITION
The number alone won't do; follow it with the unit.

See these solved cases before continuing.
1. Cc1ccc(CNC(=O)C2CCN(C(=O)c3ccco3)CC2)n1C : 2.46%
2. CC1CN(Cc2cc(C#N)ccc2F)CCN1Cc1nccn1C (stereo not drawn) : -6.33%
3. CCC(CO)N(Cc1cccs1)C(=O)CSC (stereo not drawn) : 4.78%
4. O=C1NC2(Nc3ncccc31)C(=O)Nc1c2ccc(Cl)c1F (stereo not drawn) : 9.06%
5. CC/N=c1\nc(NCC)nc2n1C(O)(Nc1cccc(Cl)c1Cl)CS2 (stereo not drawn) : 14.1%
6. OC(c1cnn(-c2ccccc2)c1)C(F)(F)F (stereo not drawn) : -3.75%
7. CCc1ccc(NC(=O)c2ncc(C(N)=O)cc2Cl)cc1F : -9.86%
8. Cc1nn(C)c(C)c1C1CCCN1C(=O)c1ccc(Cl)o1 (stereo not drawn) : -5.15%

Prompt: Quick check: cytotoxicity at 10 µM of CCc1nc(C2CCCN2C(=O)c2ccoc2C)no1 (stereo not drawn) ?
Response: -11.6%

Prompt: Quick check: cytotoxicity at 10 µM of "CCn1cnnc1CNC(=O)N1CCN(CCc2ccccc2)CC1" ?
Response: -8.14%

Prompt: Quick check: cytotoxicity at 10 µM of "Cc1cc(CNc2cc(Cl)ccc2C)no1" ?
Response: -7.01%

Prompt: Quick check: cytotoxicity at 10 µM of "Cc1ccc(C(=O)N2CCOC3(CCCC3)C2)c(=O)[nH]1" ?
Response: 7.87%
